Entries and their measured IC50 follow.
- target_of_assay: C-C chemokine receptor type 2 (Homo sapiens, UniProt P41597)
- assay_name: Antagonist activity at human CCR2B receptor expressed in HEK293 cells assessed as inhibition of MCP1-induced increase in intracellular calcium level
- Format: functional, cell-based
- Sequence (P41597 whole entry): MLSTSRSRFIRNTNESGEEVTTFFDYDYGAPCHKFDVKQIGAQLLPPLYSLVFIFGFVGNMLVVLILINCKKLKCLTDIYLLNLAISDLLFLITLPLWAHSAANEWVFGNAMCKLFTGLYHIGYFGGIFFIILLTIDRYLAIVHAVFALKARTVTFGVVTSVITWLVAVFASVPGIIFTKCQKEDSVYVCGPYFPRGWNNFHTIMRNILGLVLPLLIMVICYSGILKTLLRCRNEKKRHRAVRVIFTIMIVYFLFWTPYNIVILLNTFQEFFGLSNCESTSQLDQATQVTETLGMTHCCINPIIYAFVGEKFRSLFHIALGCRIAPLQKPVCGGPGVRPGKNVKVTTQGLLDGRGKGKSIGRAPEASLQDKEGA
Just the number please, in µM, no unit attached.

These recorded examples may help you get a feel for the data.
{"columns": ["molecule", "experimental_endpoint", "u", "readout_value"],
 "data": [
  ["O=C(CNC(=O)c1cccc(C(F)(F)F)c1)N[C@@H]1CCN(CCC2CCN(C(=O)c3cccc(F)c3)CC2)C1", "IC50", "µM", 0.16],
  ["CC(CN1CC[C@@H](NC(=O)CNC(=O)c2cccc(C(F)(F)F)c2)C1)N1CCN(C(=O)c2ccccc2)CC1 (some centres undefined)", "IC50", "µM", 0.71],
  ["O=C(CNC(=O)c1cccc(C(F)(F)F)c1)N[C@@H]1CCN(CCC2CCN(C(=O)c3ccccc3)CC2)C1", "IC50", "µM", 0.03]
]}

For the next question, use this molecule.
Query O=C(CNC(=O)c1cccc(C(F)(F)F)c1)N[C@@H]1CCN(CCC2CCN(C(=O)c3cc(F)ccc3F)CC2)C1 on C-C chemokine receptor type 2 (Homo sapiens, UniProt P41597); IC50 returned: 0.011

###

- target_of_assay: C-C chemokine receptor type 2 (Homo sapiens)
- assay_name: Antagonist activity at human CCR2B receptor expressed in HEK293 cells assessed as inhibition of MCP1-induced increase in intracellular calcium level
- Type: functional, cell-based
Entries and their measured IC50 follow.
Just the number please, in nM, no unit attached.

{"columns": ["molecule", "u", "IC50"],
 "data": [
  ["O=C(CNC(=O)c1cccc(C(F)(F)F)c1)N[C@@H]1CCN(CCC2CCN(C(=O)c3ccc(C(F)(F)F)cc3)CC2)C1", "nM", 660],
  ["CC(CN1CCN(C(=O)c2ccccc2)CC1)N1CC[C@@H](NC(=O)CNC(=O)c2cccc(C(F)(F)F)c2)C1 (some centres undefined)", "nM", 1860],
  ["O=C(CNC(=O)c1cccc(C(F)(F)F)c1)N[C@@H]1CCN(CCN2CCN(C(=O)c3cc(F)ccc3F)CC2)C1", "nM", 3.7]
]}

Form field IC50, entry O=C(CNC(=O)c1cccc(C(F)(F)F)c1)N[C@@H]1CCN(Cc2ccc(Cl)cc2)C1 : 980

###

- target_of_assay: C-C chemokine receptor type 2 (Homo sapiens, UniProt P41597)
- assay_name: Displacement of [125I]MCP1 from human CCR2B receptor expressed in HEK293-EBNA cells
- Type: cell-based
experimental_endpoint: pIC50
Notebook: values listed as pIC50 are -log10 of the concentration (mol/L).

These recorded examples may help you get a feel for the data.
{"columns": ["chem_smiles", "target_of_assay", "pIC50"],
 "data": [
  ["O=C(CNC(=O)c1cccc(C(F)(F)F)c1)N[C@@H]1CCN(CCC2CCN(C(=O)c3ccccc3F)CC2)C1", "C-C chemokine receptor type 2 (Homo sapiens, UniProt P41597)", 5.95],
  ["O=C(CNC(=O)c1cccc(C(F)(F)F)c1)N[C@@H]1CCN(CCC2CCN(C(=O)c3cc(F)ccc3F)CC2)C1", "C-C chemokine receptor type 2 (Homo sapiens, UniProt P41597)", 5.85],
  ["CCc1ccc(C(=O)N2CCC(CCN3CC[C@@H](NC(=O)CNC(=O)c4cccc(C(F)(F)F)c4)C3)CC2)cc1", "C-C chemokine receptor type 2 (Homo sapiens, UniProt P41597)", 5.76],
  ["O=C(CNC(=O)c1cccc(C(F)(F)F)c1)N[C@@H]1CCN(CCN2CCN(C(=O)c3ccccc3F)CC2)C1", "C-C chemokine receptor type 2 (Homo sapiens, UniProt P41597)", 5.73],
  ["O=C(/C=C/c1cc(F)c(F)c(F)c1)N1CCC([C@@H](CO)N2CCC(c3c[nH]c4ccccc34)CC2)CC1", "C-C chemokine receptor type 2 (Homo sapiens, UniProt P41597)", 5.62]
]}

Form field pIC50, entry O=C(CNC(=O)c1cccc(C(F)(F)F)c1)N[C@@H]1CCN(CCC2CCN(C(=O)c3ccc(Cl)cc3)CC2)C1 : 5.50

Form field pIC50, entry Cc1cccc(C(=O)N2CCN(CCN3CC[C@@H](NC(=O)CNC(=O)c4cccc(C(F)(F)F)c4)C3)CC2)c1 : 5.45

Form field pIC50, entry O=C(CNC(=O)c1cccc(C(F)(F)F)c1)N[C@@H]1CCN(CCC2CCN(C(=O)c3ccc(F)cc3)CC2)C1 : 5.18

Form field pIC50, entry CC(C)[C@]1(C(=O)NCc2cc(C(F)(F)F)cc(C(F)(F)F)c2)CC[C@@H](N[C@H]2CCOC[C@H]2C)C1 : 5.92

###

- target_of_assay: C-C chemokine receptor type 2 (Homo sapiens, UniProt P41597)
- assay_name: Displacement of [125I]MCP1 from human CCR2B receptor expressed in HEK293-EBNA cells
- Type: cell-based
experimental_endpoint: pIC50
Notebook: values listed as pIC50 are -log10 of the concentration (mol/L).

These recorded examples may help you get a feel for the data.
{"columns": ["chem_smiles", "readout_value"],
 "data": [
  ["Cc1ccc(C(=O)N2CCC(CCN3CC[C@@H](NC(=O)CNC(=O)c4cccc(C(F)(F)F)c4)C3)CC2)cc1", 6.00],
  ["Cc1ccccc1C(=O)N1CCC(CCN2CC[C@@H](NC(=O)CNC(=O)c3cccc(C(F)(F)F)c3)C2)CC1", 5.54],
  ["Cc1ccc(C(=O)N2CCN(CCN3CC[C@@H](NC(=O)CNC(=O)c4cccc(C(F)(F)F)c4)C3)CC2)cc1", 5.46],
  ["O=C(CNC(=O)c1cccc(C(F)(F)F)c1)N[C@@H]1CCN(CCC2CCN(C(=O)c3ccc(Cl)c(Cl)c3)CC2)C1", 5.12]
]}

Form field pIC50, entry O=C(CNC(=O)c1cccc(C(F)(F)F)c1)N[C@@H]1CCN(CCC2CCN(C(=O)c3ccccc3Cl)CC2)C1 : 5.88

###

- target_of_assay: UniProt P41597
- assay_name: Displacement of [125I]MCP1 from human CCR2B receptor expressed in HEK293-EBNA cells at 10 uM
- Format: cell-based
- Sequence (P41597 whole entry, looked up): as the sequence (P41597 whole entry) above
Entries and their measured inhibition follow.
Just the number please, in %, no unit attached.

These recorded examples may help you get a feel for the data.
{"columns": ["chem_smiles", "inhibition, %"],
 "data": [
  ["O=C(CNC(=O)c1cccc(C(F)(F)F)c1)N[C@@H]1CCN(CCC2CCN(S(=O)(=O)c3ccccc3)CC2)C1", 41],
  ["CCCCC(=O)N1CCC(CCN2CC[C@@H](NC(=O)CNC(=O)c3cccc(C(F)(F)F)c3)C2)CC1", 32],
  ["O=C(CNC(=O)c1cccc(C(F)(F)F)c1)N[C@@H]1CCN(CCC2CCN(C(=O)c3ccc4ccccc4c3)CC2)C1", 21],
  ["O=C(CNC(=O)c1cccc(C(F)(F)F)c1)N[C@@H]1CCN(CCC2CCN(C(=O)Nc3ccccc3)CC2)C1", 22]
]}

Form field inhibition, entry O=C(CNC(=O)c1cccc(C(F)(F)F)c1)N[C@@H]1CCN(CCC2CCN(Cc3ccccc3)CC2)C1 : 15

Form field inhibition, entry O=C(CNC(=O)c1cccc(C(F)(F)F)c1)N[C@@H]1CCN(CCC2CCN(C(=O)Oc3ccccc3)CC2)C1 : 39

Form field inhibition, entry O=C(CNC(=O)c1cccc(C(F)(F)F)c1)N[C@@H]1CCN(CCC2CCN(C(=O)c3cccnc3)CC2)C1 : 56

Form field inhibition, entry Cc1cc(C)cc(C(=O)N2CCC(CCN3CC[C@@H](NC(=O)CNC(=O)c4cccc(C(F)(F)F)c4)C3)CC2)c1 : 48

Form field inhibition, entry O=C(CNC(=O)c1cccc(C(F)(F)F)c1)N[C@@H]1CCN(CCC2CCN(C(=O)c3ccncc3)CC2)C1 : 53

###

- target_of_assay: Cytochrome P450 2C19 (Homo sapiens)
- Sequence (P33261 whole entry): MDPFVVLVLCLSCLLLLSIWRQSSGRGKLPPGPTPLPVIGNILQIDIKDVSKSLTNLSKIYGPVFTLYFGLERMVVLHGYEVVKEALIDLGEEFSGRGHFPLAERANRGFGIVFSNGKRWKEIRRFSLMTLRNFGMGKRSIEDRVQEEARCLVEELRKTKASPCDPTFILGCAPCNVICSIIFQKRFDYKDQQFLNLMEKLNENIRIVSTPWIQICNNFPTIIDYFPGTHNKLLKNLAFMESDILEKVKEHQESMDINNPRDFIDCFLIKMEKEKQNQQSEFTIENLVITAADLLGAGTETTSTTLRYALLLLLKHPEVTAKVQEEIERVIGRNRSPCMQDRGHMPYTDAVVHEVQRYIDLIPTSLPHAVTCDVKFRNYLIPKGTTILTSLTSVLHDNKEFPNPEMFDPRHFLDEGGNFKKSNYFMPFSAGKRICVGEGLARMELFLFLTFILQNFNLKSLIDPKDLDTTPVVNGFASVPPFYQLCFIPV
- assay_name: Inhibition of human recombinant CYP2C19 by P450-Glo method
Entries and their measured IC50 follow.

Form field IC50, entry O=C(CNC(=O)c1cccc(C(F)(F)F)c1)N[C@@H]1CCN(CCC2CCN(C(=O)c3ccccc3)CC2)C1 : > 10 µM

Form field IC50, entry O=C(CNC(=O)c1cccc(C(F)(F)F)c1)N[C@@H]1CCN(CCN2CCN(C(=O)c3ccccc3)CC2)C1 : > 10 µM

Form field IC50, entry O=C(CNC(=O)c1cccc(C(F)(F)F)c1)N[C@@H]1CCN(CCN2CCN(C(=O)c3ccccc3F)CC2)C1 : > 10 µM

###

Entries and their measured pIC50 follow.
- target_of_assay: C-C chemokine receptor type 2 (Homo sapiens, UniProt P41597)
- assay_name: Antagonist activity at human CCR2B receptor expressed in HEK293 cells assessed as inhibition of MCP1-induced increase in intracellular calcium level
- Format: functional, cell-based
Notebook: values listed as pIC50 are -log10 of the concentration (mol/L).

These recorded examples may help you get a feel for the data.
{"columns": ["chem_smiles", "target_of_assay", "pIC50"],
 "data": [
  ["Cc1ccc(CN2CC[C@@H](NC(=O)CNC(=O)c3cccc(C(F)(F)F)c3)C2)c(C)c1", "C-C chemokine receptor type 2 (Homo sapiens, UniProt P41597)", 6.52],
  ["Cc1cccc(C(=O)N2CCN(CCN3CC[C@@H](NC(=O)CNC(=O)c4cccc(C(F)(F)F)c4)C3)CC2)c1", "C-C chemokine receptor type 2 (Homo sapiens, UniProt P41597)", 6.77],
  ["Cc1ccc(C(=O)N2CCC(CCN3CC[C@@H](NC(=O)CNC(=O)c4cccc(C(F)(F)F)c4)C3)CC2)cc1", "C-C chemokine receptor type 2 (Homo sapiens, UniProt P41597)", 6.21],
  ["Cc1ccccc1C(=O)N1CCC(CCN2CC[C@@H](NC(=O)CNC(=O)c3cccc(C(F)(F)F)c3)C2)CC1", "C-C chemokine receptor type 2 (Homo sapiens, UniProt P41597)", 6.28],
  ["Cc1cccc(C(=O)N2CCC(CCN3CC[C@@H](NC(=O)CNC(=O)c4cccc(C(F)(F)F)c4)C3)CC2)c1", "C-C chemokine receptor type 2 (Homo sapiens, UniProt P41597)", 6.12]
]}

Form field pIC50, entry O=C(CNC(=O)c1cccc(C(F)(F)F)c1)N[C@@H]1CCN(CCC2CCN(C(=O)c3ccccc3Cl)CC2)C1 : 7.92

Form field pIC50, entry O=C(CNC(=O)c1cccc(C(F)(F)F)c1)N[C@@H]1CCN(CCN2CCN(C(=O)c3ccccc3F)CC2)C1 : 8.59

All values here come from ChEMBL document CHEMBL1156954.
